Recorded melting point for the following molecules

CCC(C)c1ccc(-n2c(-c3cc(C)c(OCCO)c(C)c3)nc3ccc(S(C)(=O)=O)cc3c2=O)cc1 (centres unmarked)
258.8 to 260.2 °C
Cc1cc(-c2nc3c(Cl)cccc3c(=O)n2-c2ccc(Br)cc2)cc(C)c1OCCO
185 to 186 °C
COc1cccc2c(=O)n(-c3ccc(Br)cc3)c(-c3cc(C)c(OCCO)c(C)c3)nc12
100 to 102 °C
Cc1cc(-c2nc3ccccc3c(=O)n2-c2ccc(C(C)C)cc2)cc(C)c1OCCO
160 to 162 °C
Cc1cc(-c2nc3ccccc3c(=O)n2-c2ccc(Br)cc2)cc(C)c1OCCO
164 to 165 °C

### Prompt Identify the reported melting point for the following entry. CCC(C)c1ccc(-n2c(-c3cc(C)c(OCCO)c(C)c3)nc3cc(S(C)(=O)=O)ccc3c2=O)cc1 (centres unmarked)
### Response 235 to 237 °C

### Prompt Please give the documented melting point of `Cc1cc(-c2nc3ccccc3c(=O)n2-c2ccc(Cl)cc2)cc(C)c1OCCO`
### Response 101 to 103 °C

### Prompt Name the recorded melting point of the item `Cc1cc(-c2nc3ccccc3c(=O)n2-c2ccc(Br)cc2)ccc1OCCO` in your answer.
### Response 92 to 93 °C
